Hey, just so you know, these numbers are from patent US20120122727A1.

The following compounds are shown together with reported Gene expression AK007854 average values.
System: primary mouse hepatocytes
assay_comment: Gene expression (Affymetrix Mouse Genome 430 2.0) in primary mouse hepatocytes, true vs false GTX, 24 h and 48 h
condition_description: 48 h; log2, corrected for vehicle control
Respond numerically, and do not add a unit to the figure.

{"columns": ["compound", "measure", "observed"],
 "data": [
  ["Nc1ccccc1C(=O)O [ANAC, o-Anthranilic acid]", "Gene expression AK007854 average", "−0.2242"],
  ["O=c1c(O)c(-c2ccc(O)c(O)c2)oc2cc(O)cc(O)c12 [Q, Quercetin]", "Gene expression AK007854 average", 1.0645]
]}

Now for another entry.
Lookup: Bench note: what Gene expression AK007854 average did c1ccc2c(c1)cc1ccc3cccc4ccc2c1c34 [BaP, Benzo(a)pyrene] show?
Found: 1.6125

----------
Test system: primary mouse hepatocytes
assay_comment: Gene expression (Affymetrix Mouse Genome 430 2.0) in primary mouse hepatocytes, true vs false GTX, 24 h and 48 h
condition_description: 48 h; log2, corrected for vehicle control
The following molecules are shown together with reported Gene expression NM_134147 average values.
Respond numerically, and do not add a unit to the figure.

Use the examples below as a reference point.
{"columns": ["structure_smiles_string", "Gene expression NM_134147 average"],
 "data": [
  ["c1ccc2c(c1)cc1ccc3cccc4ccc2c1c34", "−1.2396"],
  ["Nc1ccc([N+](=O)[O-])cc1N", 0.01433],
  ["CC(=O)Nc1ccc2c(c1)Cc1ccccc1-2", 0.04213],
  ["CN(C)N=O", "−1.579"],
  ["Nc1ccccc1C(=O)O", "−0.2207"]
]}

Now for another entry.
Lookup: Bench note: what Gene expression NM_134147 average did "O=c1c(O)c(-c2ccc(O)c(O)c2)oc2cc(O)cc(O)c12" show?
Found: −0.2048

----------
Tested on: primary mouse hepatocytes
assay_comment: Gene expression (Affymetrix Mouse Genome 430 2.0) in primary mouse hepatocytes, true vs false GTX, 24 h and 48 h
condition_description: 24 h average; log2, corrected for vehicle control
measure: Gene expression data AK005731 (1700007K13Rik)
Respond numerically, and do not add a unit to the figure.

{"columns": ["structure_smiles_string", "test_target", "observed"],
 "data": [
  ["Nc1ccc([N+](=O)[O-])cc1N", "primary mouse hepatocytes", "−0.5111"]
]}

Lookup: Bench note: what Gene expression data AK005731 (1700007K13Rik) did "CC(=O)Nc1ccc2c(c1)Cc1ccccc1-2" show?
Found: 0.08277

Lookup: Quick one: "O=c1c(O)c(-c2ccc(O)c(O)c2)oc2cc(O)cc(O)c12"
Found: 0.6919

Lookup: Quick one: "Nc1ccccc1C(=O)O"
Found: −0.1733

Lookup: Quick one: "c1ccc2c(c1)cc1ccc3cccc4ccc2c1c34"
Found: 2.016

Lookup: Quick one: "CN(C)N=O"
Found: 5.486

----------
Tested on: primary mouse hepatocytes
assay_comment: Gene expression (Affymetrix Mouse Genome 430 2.0) in primary mouse hepatocytes, true vs false GTX, 24 h and 48 h
condition_description: 24 h average; log2, corrected for vehicle control
Label scheme for Gene expression data AV377066 (9130221J18Rik): lower than -0.5 is Not met, -0.5 and above is Met.

Here are 4 compounds together with their reported answers.
{"columns": ["structure_smiles_string", "label_value"],
 "data": [
  ["CN(C)N=O", "Met"],
  ["CC(=O)Nc1ccc2c(c1)Cc1ccccc1-2", "Not met"],
  ["c1ccc2c(c1)cc1ccc3cccc4ccc2c1c34", "Met"],
  ["Nc1ccc([N+](=O)[O-])cc1N", "Not met"]
]}

Now look at this one.
Lookup: Gene expression data AV377066 (9130221J18Rik) >= -0.5 for "Nc1ccccc1C(=O)O" ?
Found: Met
